Ref: paper PMC6256925

system-name: HIV-1 integrase (Human immunodeficiency virus type 1 group M subtype B, UniProt P04585)
metric-name: Kd (µM)

# molecule, unit-abbreviation, measured-number
rows = [
    ("CC[C@@]1(O)C(=O)OCc2c1cc1n(c2=O)Cc2c-1nc1ccccc1c2CO [Compound 3, 7-Hydroxymethylcamptothecin]", "µM", 64.9),
]

###

procedure-text: MTT-based cytotoxicity assay, Jurkat/HIV-1IIIB
Format: cell-based
condition-label: human, Jurkat/HIV-1IIIB cells
metric-name: CC50 at 3 days (µg/mL)

# molecule, unit-abbreviation, measured-number
measured = [
    ("CC[C@@]1(O)C(=O)OCc2c1cc1n(c2=O)Cc2c-1nc1ccccc1c2CO [Compound 3, 7-Hydroxymethylcamptothecin]", "µg/mL", 0.041),
]

###

procedure-text: MTT-based cytotoxicity assay, PBMC
Format: cell-based
condition-label: human
metric-name: CC50 at 3 days (µg/mL)

# compound, unit-abbreviation, measured-number
rows = [
    ("CC[C@@]1(O)C(=O)OCc2c1cc1n(c2=O)Cc2c-1nc1ccccc1c2CO [Compound 3, 7-Hydroxymethylcamptothecin]", "µg/mL", 0.06),
]

###

procedure-text: MTT-based cytotoxicity assay, C8166
Type: cell-based
condition-label: human

# molecule, CC50 at 3 days [µg/mL]
rows = [
    ("CC[C@@]1(O)C(=O)OCc2c1cc1n(c2=O)Cc2c-1nc1ccccc1c2CO [Compound 3, 7-Hydroxymethylcamptothecin]", 0.159),
]

###

system-name: HIV-1 reverse transcriptase (Human immunodeficiency virus type 1 group M subtype B)
procedure-text: Inhibition assay of recombinant HIV-1 RT activity (ELISA)
pEC50: −log10 of the molar value.
metric-name: pEC50

# compound, metric-name, result
rows = [
    ("CC[C@@]1(O)C(=O)OCc2c1cc1n(c2=O)Cc2c-1nc1ccccc1c2CO [Compound 3, 7-Hydroxymethylcamptothecin]", "pEC50", "< 4.35"),
]
